- measurement.target: T1, hNav1.7-loopA3-llama Fc fusion (human)
- T1 construct: also called hNav1.7-loopA3-llFc; loopA3-llamaFc chimera
- T1 chain: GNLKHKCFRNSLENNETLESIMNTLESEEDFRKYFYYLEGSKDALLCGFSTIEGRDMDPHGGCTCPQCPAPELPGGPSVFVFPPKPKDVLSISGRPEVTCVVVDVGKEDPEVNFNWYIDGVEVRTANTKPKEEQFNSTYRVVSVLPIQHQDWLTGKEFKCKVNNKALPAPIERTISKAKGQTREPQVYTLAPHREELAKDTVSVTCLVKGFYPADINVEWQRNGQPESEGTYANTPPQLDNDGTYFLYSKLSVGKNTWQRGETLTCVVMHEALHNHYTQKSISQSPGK
- test.description: ELISA, coated hNav1.7-loopA3-llama Fc, mAb titrated
- Protocol: mAbs originating from the loopA3-llama Fc immunization were assayed for their affinity for hNav1.7-loopA3. Therefore, a Maxisorp plate was coated with 10 ng/well of loopA3-llamaFc chimera and incubated overnight at 4° C. […] Antibody binding to loopA3 was detected using a HRP-conjugated anti-human Fc antibody (Abcam, Ab7499) (incubation 1 hour at RT, dilution 1/5000 in PBS+0.1% casein), followed by TMB addition and OD620 nm measurement. EC50 values were determined using GraphPad Prism software. […]
Attribute: EC50
measured.attribute: EC50 (nM)

• 6H8 (antibody, human IgG1, V domains shown) VH: EVQLVESGGGLVQPGGTLRLSCAASGFTFSNYWMHWVRQAPGKGLEWVSVIDRGGGGTRYADSVKGRFTISRDNAKNTLYLRMNSLKPEDTALYYCTRDRNGEYDYWGRGTQVTVSS VL: DIQMTQSPSSVTASAGEKVTINCKSSQSVLYSSNQKNYLAWYQQRLGQSPRLLIYWASTRESGVPDRFSGSGSTTDFTLTINNFQPEDAAVYYCQQGYSAPLTFGQGTKVELK = 0.066
• 2D11 (antibody, human IgG1, V domains shown) VH: EVQLQESGPGLVKPSQTLSLTCTVSGGSITNSYYASSWIRQPPGKGLEWMGVIIYDGSTYYSPSLKSRTSISRDTSKNQFSLQLSSVTPEDTAVYYCARGLRVAGSYFTDFGTWGQGTQVTVSS VL: SYELTQSPSVSVALRQAAKITCGGDNIASKHAHWYQQKPGQSPVLVIYKDSNRPSGIPERFSGSNSGNTATLTVSGAQAEDEADYYCQVWDSSANAAVFGGGTHLTVLG = 0.071
• 4F7 (antibody, human IgG1, V domains shown) VH: QVQLQESGPGLVKPSQTLSLTCTVSGGSITTSFYAWSWIRQPPGKGLEWMGVIAYDGRTFYSPSLKSRTHISRDTSKNQFSLQLSSVTPEDTAVYYCARGGVVAWSYDYWGQGTQVTVSS VL: SYELTQSPSVSVALRQTAKITCGGNDIGSKSTQWYQQKAGQAPVLVIYADSRRPSGIPERFSGSNSGNTATLTISGAQAEDEADYYCQVWDSRADAAVFGGGTHLTVLG = 0.057

Reference source: patent US20160207996A1
